B1: RTP4 (parent)
chain: TYWEHWTSQGQVRMRLFGQRCQKC

Variants of: B1
Assay: protein stability index of a GFP-peptide fusion (GPS, HEK-293T) (PSI 1-6); higher = more stable;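 also: lentivirally expressed fusions sorted by FACS into six bins by GFP to DsRed ratio, PSI derived from sequencing read proportions per bin multiplied by bin number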
Conditions: c terminus: a fixed tail appended
Returns 1 if the recorded protein stability index is greater than or equal to 2, and -1 otherwise.

>>> class_assignment("TYWEHWTSQGQVRMRLFGQRCQKF")
1
>>> class_assignment("VYWEHWTSQGQVRMRLFGQRCQKC")
-1
>>> class_assignment("TYWKHWTSQGQVRMRLFGQRCQKC")
1
>>> class_assignment("TYWEHWTSQGQVRMRLFGQFCQKC")
-1
>>> class_assignment("TYWEHWTSQGQVRMRLMGQRCQKC")
1
>>> class_assignment("TYWEHWNSQGQVRMRLFGQRCQKC")
-1
>>> class_assignment("TYDEHWTSQGQVRMRLFGQRCQKC")
1
>>> class_assignment("TYWEHWTSQGQVRMRLFSQRCQKC")
-1
>>> class_assignment("TYWEHFTSQGQVRMRLFGQRCQKC")
-1
>>> class_assignment("TYWEHWTSQGQVRMRLFGQRMQKC")
-1
>>> class_assignment("TYWEHWTSQGQVRMRLFGSRCQKC")
-1
>>> class_assignment("TYWEHWTSQGQVRMRLFGQRCQQC")
-1
>>> class_assignment("TYWEHWTSQGQVRMGLFGQRCQKC")
-1
>>> class_assignment("TYWEHWTSHGQVRMRLFGQRCQKC")
-1
>>> class_assignment("TYWEHWTSQGQIRMRLFGQRCQKC")
-1
>>> class_assignment("TYREHWTSQGQVRMRLFGQRCQKC")
-1
>>> class_assignment("TYWEHWTSQGQVRMNLFGQRCQKC")
1
>>> class_assignment("TYWEHWTSQGQVRMRLWGQRCQKC")
1
>>> class_assignment("TYWEHWTSQGQVRMRLFGQRCSKC")
-1
